Molecular target: T1, OP (Artificial, UniProt Q9XDM8 SEQ:1-184)
T1 chain: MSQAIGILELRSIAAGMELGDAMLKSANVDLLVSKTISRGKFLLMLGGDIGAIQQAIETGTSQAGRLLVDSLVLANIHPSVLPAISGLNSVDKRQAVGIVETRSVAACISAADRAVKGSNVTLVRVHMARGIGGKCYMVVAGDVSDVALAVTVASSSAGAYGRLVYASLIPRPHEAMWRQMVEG
Assay: EMSA; 2:1 ssDNA to capsid
Details: tags: C-terminal His6; chain copies: 24 (self-assembled cage)

# binder, binding result
measured = [
    ("CGATTAGCGGTCTGAATAGCGTGG (ssDNA) [ssDNA6]", "binds"),
    ("GGTTTCAATCGCCTGCTGAATCGC (ssDNA) [ssDNA7]", "binds"),
    ("CGTGGCGAGCAGCAGCGC (ssDNA) [ssDNA1]", "binds"),
    ("GCGATTCAGCAGGCGATTGAAACC (ssDNA) [ssDNA5]", "binds"),
    ("GAAGGAGATATACATATGAGCCAGGC (ssDNA) [ssDNA9]", "binds"),
    ("CCACGCTATTCAGACCGCTAATCG (ssDNA) [ssDNA8]", "binds"),
    ("GTGCTCGAGACCTTCCACCATC (ssDNA) [ssDNA3]", "binds"),
    ("GGTGATGCGATGCTGAAAAGCGC (ssDNA) [ssDNA4]", "binds"),
    ("CCTGGTGCGTGTGCACATGG (ssDNA) [ssDNA2]", "binds"),
]
